Target: UniProt:Q8NEB9
Sequence (Q8NEB9 whole entry): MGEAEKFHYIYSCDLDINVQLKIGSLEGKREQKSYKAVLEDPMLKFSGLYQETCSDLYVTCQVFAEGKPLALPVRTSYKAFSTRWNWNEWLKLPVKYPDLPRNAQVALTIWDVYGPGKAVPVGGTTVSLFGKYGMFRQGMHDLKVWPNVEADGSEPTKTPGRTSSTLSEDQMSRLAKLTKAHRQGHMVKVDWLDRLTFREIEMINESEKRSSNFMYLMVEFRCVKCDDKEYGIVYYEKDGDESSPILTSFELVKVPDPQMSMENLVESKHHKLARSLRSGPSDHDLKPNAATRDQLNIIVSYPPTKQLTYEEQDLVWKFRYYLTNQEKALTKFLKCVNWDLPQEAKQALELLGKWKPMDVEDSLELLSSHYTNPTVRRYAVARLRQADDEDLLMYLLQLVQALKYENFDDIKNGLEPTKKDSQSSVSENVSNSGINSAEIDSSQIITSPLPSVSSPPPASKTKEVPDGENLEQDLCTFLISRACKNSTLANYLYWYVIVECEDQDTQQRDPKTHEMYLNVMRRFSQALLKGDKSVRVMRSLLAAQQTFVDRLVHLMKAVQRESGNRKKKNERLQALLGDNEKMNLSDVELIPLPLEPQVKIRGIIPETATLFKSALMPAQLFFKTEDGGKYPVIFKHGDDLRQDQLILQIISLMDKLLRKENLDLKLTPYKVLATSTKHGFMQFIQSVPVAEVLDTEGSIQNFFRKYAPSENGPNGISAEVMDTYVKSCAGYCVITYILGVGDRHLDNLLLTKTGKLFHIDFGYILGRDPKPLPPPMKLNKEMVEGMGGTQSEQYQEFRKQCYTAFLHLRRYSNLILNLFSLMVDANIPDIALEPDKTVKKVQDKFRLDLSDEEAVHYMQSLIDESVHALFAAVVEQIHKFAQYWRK
Assay: Vps34 biochemical assay (Adapta kinase assay)
Conditions: 20 μM ATP and 200 μM PI:PS in substrate mix, 1 h at room temperature, read-out: Median IC50 uM Adapta
endpoint: IC50 (µM)
Give your result in µM as a bare value.

Worked examples follow.
| compound | readoutUnits | reading |
| --- | --- | --- |
| C[C@@H]1COCCN1c1cc(N2CCCC2c2cccc(F)c2)[nH]c(=O)c1 (single isomer, unassigned) [Example 13_1] | µM | 0.06 |
| C[C@@H]1COCCN1c1cc(N2CCCC2c2cccc(F)c2)[nH]c(=O)c1 (single isomer, unassigned) [Example 13_2] | µM | 0.1 |
| Cn1c(N2CCCC2c2ccccc2)cc(N2CCOCC2)cc1=O (stereo not shown) [Example 2] | µM | 0.1 |

# context switch: different compound, same IC50
In: I'd like to know its IC50. The compound in question is COc1cccc(C2CCCN2c2cc(N3CCOC[C@H]3C)cc(=O)[nH]2)c1 (mixture of isomers) [Example 17]
Out: 0.01
